- experimentalProtocol: Human plasma protein binding (equilibrium dialysis)
- Format: in vitro ADME
- cond: dialysis 18 hours
valueKind: Human plasma protein binding (% free)

INSERT INTO results (compound, unitstring, qual, experimentalresult) VALUES
  ('Cc1ccc2[nH]c3c(c2c1)C[C@@H](C)N(CC(F)(F)CO)[C@@H]3c1c(F)ccc(OCCNCCCF)c1F [Example 63]', '% free', '=', 0.97),
  ('C[C@@H]1Cc2c([nH]c3ccccc23)[C@@H](c2c(Cl)ccc(OCCNCCCF)c2F)N1C[C@H](C)C(=O)O [Example 54]', '% free', '=', 18),
  ('Cc1c(OCCNCCCF)ccnc1[C@@H]1c2[nH]c3ccccc3c2C[C@@H](C)N1CC(F)(F)CO [Example 96]', '% free', '=', 7.1),
  ('C[C@@H]1Cc2c([nH]c3ccccc23)[C@@H](c2c(F)c(F)cc(OCCNCCCF)c2F)N1CC(F)(F)F [Example 32]', '% free', '=', 0.52),
  ('C[C@@H]1Cc2c([nH]c3ccccc23)[C@@](C)(c2cccc(OCCNCCCF)c2)N1CC(F)(F)F [Example 75]', '% free', '=', 0.08),
  ('C[C@@H]1Cc2c([nH]c3ccc(F)cc23)[C@@H](c2c(F)ccc(NCCNCCCF)c2F)N1CC(F)(F)CO [Example 89]', '% free', '<', 3.4),
  ('Cc1c(N(C)CCN(C)CCCF)ccc(F)c1[C@@H]1c2[nH]c3ccccc3c2C[C@@H](C)N1C[C@H](C)C(=O)O [Example 147]', '% free', '=', 19),
  ('COc1ncc(NCCNCCCF)cc1[C@@H]1c2[nH]c3ccccc3c2C[C@@H](C)N1CC(F)(F)F [Example 41]', '% free', '=', 1.8),
  ('Cc1ccc(OCCNCCCF)nc1[C@@H]1c2[nH]c3ccccc3c2C[C@@H](C)N1CC(F)(F)F [Example 105]', '% free', '=', 1),
  ('C[C@@H]1Cc2c([nH]c3ccccc23)[C@@H](c2c(F)ccc(OCCNCCCF)c2F)N1CC1(S(C)(=O)=O)CC1 [Example 77]', '% free', '=', 5.5),
  ('C[C@@H]1Cc2c([nH]c3ccccc23)[C@@H](c2cccc(OCCNCCCF)n2)N1CC(F)(F)F [Example 34]', '% free', '=', 2.2),
  ('Cc1c(NCCNCCCF)ccc(F)c1[C@@H]1c2[nH]c3ccccc3c2C[C@@H](C)N1C[C@H](C)C(=O)O [Example 135]', '% free', '=', 32),
  ('Cc1c(OCCNCCCF)cncc1[C@@H]1c2[nH]c3ccccc3c2C[C@@H](C)N1CC(F)(F)F [Example 38]', '% free', '=', 0.91),
  ('COc1cc(F)c(NCCNCCCF)cc1[C@@H]1c2[nH]c3ccccc3c2C[C@@H](C)N1CC(F)(F)F [Example 91]', '% free', '=', 0.93);

* * *

- experimentalProtocol: Human plasma protein binding (equilibrium dialysis)
- Format: in vitro ADME
- cond: dialysis 18 hours
valueKind: Human plasma protein binding (% free)

INSERT INTO measurements (structure, valuekind, experimentalresult) VALUES
  ('C[C@@H]1Cc2c([nH]c3ccccc23)[C@@H](c2cc(OCCNCCCF)ccc2Cl)N1CC(F)(F)CO', 'Human plasma protein binding (% free)', 2.3),
  ('COc1ccc(OCCNCCCF)c(C)c1[C@@H]1c2[nH]c3ccccc3c2C[C@@H](C)N1CC(F)(F)F', 'Human plasma protein binding (% free)', 0.22),
  ('C[C@@H]1Cc2c([nH]c3ccccc23)[C@@H](c2cccc(OCCNCCCF)c2Cl)N1CC(F)(F)F', 'Human plasma protein binding (% free)', 0.080),
  ('Cc1c(OCCNCCCF)ccc(F)c1[C@@H]1c2[nH]c3ccccc3c2C[C@@H](C)N1CC(F)(F)C(=O)O', 'Human plasma protein binding (% free)', 8.4);

* * *

Below, each entry is listed with its recorded Human plasma protein binding (% free).
- experimentalProtocol: Human plasma protein binding (equilibrium dialysis)
- Assay type: in vitro ADME
- cond: dialysis 18 hours
valueKind: Human plasma protein binding (% free)

INSERT INTO results (compound, qual, experimentalresult) VALUES
  ('C[C@@H]1Cc2c([nH]c3ccccc23)[C@@H](c2cccc(OCCNCCCF)c2C(F)F)N1CC(F)(F)CO [Example 68]', '=', 1.2),
  ('COc1ccc(OCCNCCCF)c(F)c1[C@@H]1c2[nH]c3ccccc3c2C[C@@H](C)N1CC(F)(F)CO [Example 81]', '=', 2.9),
  ('C[C@@H]1Cc2c([nH]c3ccc(F)cc23)[C@@H](c2c(F)cnc(OCCNCCCF)c2F)N1CC(F)(F)CO [Example 65]', '=', 1.9),
  ('C[C@@H]1Cc2c([nH]c3ccccc23)[C@@H](c2ccnc(OCCNCCCF)c2Cl)N1CC(F)(F)CO [Example 104]', '=', 2.8),
  ('C[C@@H]1Cc2c([nH]c3ccccc23)[C@@H](c2c(F)cnc(OCCNCCCF)c2F)N1CC1(F)CC1 [Example 108]', '=', 2.3),
  ('C[C@@H]1Cc2c([nH]c3ccccc23)[C@@H](c2cc(OCCNCCCF)ccc2Cl)N1CC(F)(F)F [Example 22]', '=', 0.61),
  ('C[C@@H]1Cc2c([nH]c3ccc(F)cc23)[C@@H](c2c(F)cnc(OCCNCCCF)c2F)N1CC1(F)CC1 [Example 109]', '=', 1.9),
  ('COc1ccc(NCCNCCCF)cc1[C@@H]1c2[nH]c3ccccc3c2C[C@@H](C)N1CC(F)(F)F [Example 40]', '=', 0.89),
  ('COc1ccc(NCCNCCCF)c(F)c1[C@@H]1c2[nH]c3ccccc3c2C[C@@H](C)N1CC(F)(F)F [Example 90]', '=', 1.1),
  ('Cc1c(OCCN(C)CCCF)ncc(F)c1[C@@H]1c2[nH]c3ccccc3c2C[C@@H](C)N1C(C)CC(=O)O (single isomer, unassigned) [Example 158]', '=', 21),
  ('COc1c(F)cc(OCCNCCCF)c(F)c1[C@@H]1c2[nH]c3ccccc3c2C[C@@H](C)N1CC(F)(F)F [Example 29]', '<', 3.2),
  ('COc1ncc(OCCNCCCF)cc1[C@@H]1c2[nH]c3ccccc3c2C[C@@H](C)N1CC(F)(F)F [Example 36]', '=', 2),
  ('Cc1c(OCCNCCC(F)F)ccc(F)c1[C@@H]1c2[nH]c3ccc(F)cc3c2C[C@@H](C)N1C[C@@H](C)C(=O)O [Example 162]', '=', 27),
  ('CC(CN1[C@H](c2c(Cl)ccc(OCCNCCCF)c2Cl)c2[nH]c3ccc(F)cc3c2C[C@H]1C)C(=O)O (single isomer, unassigned) [Example 129]', '=', 23),
  ('C[C@@H]1Cc2c([nH]c3ccccc23)[C@@H](c2cc(OCCNCCCF)ccn2)N1CC(F)(F)F [Example 35]', '=', 5.4),
  ('C[C@@H]1Cc2c([nH]c3ccccc23)[C@@H](c2nccc(NCCNCCCF)c2F)N1CC(F)(F)F [Example 94]', '=', 7),
  ('COc1ccc(O[C@H](C)CNCCCF)cc1[C@@H]1c2[nH]c3ccccc3c2C[C@@H](C)N1CC(F)(F)CO [Example 47]', '=', 6.1),
  ('Cc1c(N(C)CCNCCCF)ccc(F)c1[C@@H]1c2[nH]c3ccccc3c2C[C@@H](C)N1C[C@H](C)C(=O)O [Example 136]', '=', 2.1),
  ('Cc1c(OCCNCCCF)ncnc1[C@@H]1c2[nH]c3ccccc3c2C[C@@H](C)N1CC(F)(F)CO [Example 115]', '=', 11),
  ('C[C@@H]1Cc2c([nH]c3cc(F)ccc23)[C@@H](c2c(F)ccc(OCCNCCCF)c2F)N1CC(F)(F)CO [Example 61]', '=', 2.0),
  ('Cc1ncc(OCCNCCCF)cc1[C@@H]1c2[nH]c3ccccc3c2C[C@@H](C)N1CC(F)(F)F [Example 37]', '=', 2.3),
  ('C[C@@H]1Cc2c([nH]c3ccccc23)[C@@H](c2c(Cl)ccc(OCCNCCCF)c2F)N1CC(F)(F)F [Example 78]', '=', 0.21),
  ('C[C@@H]1Cc2c([nH]c3ccccc23)[C@@H](c2nccc(OCCNCCCF)c2Cl)N1CC(F)(F)F [Example 93]', '=', 0.34),
  ('COc1nnc(OCCNCCCF)cc1[C@@H]1c2[nH]c3ccccc3c2C[C@@H](C)N1CC(F)(F)F [Example 112]', '=', 1.5),
  ('Cc1c(OCCN(C)CCCF)ncc(F)c1[C@@H]1c2[nH]c3ccccc3c2C[C@@H](C)N1C(C)CC(=O)O (single isomer, unassigned) [Example 159]', '=', 13),
  ('C[C@@H]1Cc2c([nH]c3ccccc23)[C@@H](c2ccnc(OCCNCCCF)c2)N1CC(F)(F)F [Example 102]', '=', 1.4),
  ('Cc1c([C@@H]2c3[nH]c4ccccc4c3C[C@@H](C)N2C[C@@H](C)C(=O)O)ccnc1OCCN(C)CCCF [Example 161]', '=', 6.3),
  ('C[C@@H]1Cc2c([nH]c3ccccc23)[C@@H](c2cc(OCCNCCCF)ccc2CO)N1CC(F)(F)F [Example 70]', '=', 23);
